Test: Bioavailability of araG after oral administration to Cynomolgus monkeys (plasma, urine)
Format: in vivo
Conditions: 94 μmol/kg, fasted Cynomolgus monkeys, individual animals, plasma, read-out: Plasma araG Peak Level
measured-endpoint: Cmax (µM)
Answer format: numeric, µM implied, no suffix.

QUERY: Cmax for Nc1nc2c(ncn2[C@@H]2O[C@H](CO)[C@@H](O)[C@@H]2O)c(=O)[nH]1 ?
RESULT: 4.6
